target or system: Ribonuclease pancreatic (Bos taurus) (UniProt P61823)
Sequence (P61823 whole entry, looked up): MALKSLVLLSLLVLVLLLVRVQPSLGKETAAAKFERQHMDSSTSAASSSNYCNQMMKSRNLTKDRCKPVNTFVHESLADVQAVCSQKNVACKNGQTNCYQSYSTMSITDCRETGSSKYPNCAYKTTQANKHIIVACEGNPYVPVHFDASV
measured quantity: pKi
// field semantics: pKi = negative decimal log of concentration (mol/L)

For `Nc1ncnc2c1ncn2[C@@H]1O[C@H](COP(=O)(O)OP(=O)(O)O[C@H]2C[C@H](n3ccc(=O)[nH]c3=O)O[C@@H]2COP(=O)(O)O)[C@@H](OP(=O)(O)O)[C@H]1O` , what is its reported pKi?
7.57

----------
assay procedure: Competitive inhibition of bovine pancreatic RNase A type 12-A assessed as degradation of yeast tRNA preincubated for 10 mins before addition of the enzyme by double reciprocal plot analysis
Design: species or system Bos taurus
Catalogue of pKi values
For clarity, pKi is expressed as the negative log10 of concentration in mol/L.

1. O=c1[nH]c(=O)n(Cc2cn([C@@H]3O[C@H](CO)[C@@H](O)[C@H]3O)nn2)cc1Cl ... 4.02
2. O=c1ccn([C@@H]2O[C@H](CO)[C@@H](O)[C@H]2O)c(=O)[nH]1 [URIDINE] ... 4.55
3. O=c1[nH]c(=O)n([C@@H]2O[C@H](CO)[C@@H](O)[C@H]2O)cc1F [5-FLUOROURIDINE] ... 4.47
4. O=c1[nH]c(=O)n([C@@H]2O[C@H](CO)[C@@H](O)[C@H]2O)cc1Cl ... 4.35
5. O=c1[nH]c(=O)n([C@@H]2O[C@H](CO)[C@@H](O)[C@H]2O)cc1Br ... 4.16

Kindly review the next molecule as well.
Please look up its pKi: `Cc1cn([C@@H]2O[C@H](CO)[C@@H](O)[C@H]2O)c(=O)[nH]c1=O`
4.36
